# Test system: SF-268
# TEST DESCRIPTION: NCI tumour cell line growth inhibition, 48 h
Calls of active or inactive are those of the source. Cut-off read from the data, not from the text of the source: active = GI50 up to about 1.1 µM and inactive = higher.
Permitted responses: True for active, False for inactive

Input line: Which result was noted for this compound in the test: COc1ccc(C2SCC(=O)N2NC(=O)c2ccc(NC(C)=O)cc2)cc1 (stereo unspecified)
Output line: False

Input line: Which result was noted for this compound in the test: Nc1nc(N)c2c(n1)NC(=O)c1c(c3ccccc3n1Cc1ccc(Cl)cc1)C2
Output line: False

Input line: Which result was noted for this compound in the test: CCOC(=O)C1CCC(=O)N1C(=O)c1ccccc1Cl (stereo unspecified)
Output line: False

Input line: Which result was noted for this compound in the test: CCCC(=O)N/S(=N/S(=O)(=O)c1ccc(Cl)cc1)C(Cl)(Cl)Cl (stereo unspecified)
Output line: False

Input line: Which result was noted for this compound in the test: CC(=O)N1c2ccccc2C(C)C1c1[nH]c2ccccc2c1C (stereo unspecified)
Output line: False

Input line: Which result was noted for this compound in the test: C=CCN(N=O)C(=O)N(CCC)CCCCC(NC(C)=O)C(=O)NCc1ccccc1 (stereo unspecified)
Output line: False

Input line: Which result was noted for this compound in the test: CC(/C=N/N=C1NCCCN1)=N\N=C1NCCCN1
Output line: False

Input line: Which result was noted for this compound in the test: CC1[C@@H](OCc2ccccc2)COC(=O)N1Cc1ccccc1 (stereo partly specified)
Output line: False

Input line: Which result was noted for this compound in the test: Cc1cc(NS(=O)(=O)c2ccc(NC(=O)c3ccc(Cl)c4c(Nc5ccc(S(N)(=O)=O)cc5)c5ccccc5nc34)cc2)no1
Output line: False

Input line: Which result was noted for this compound in the test: CCOC(=O)CC1(O)CCCCC1(Sc1ccc(C)cc1)Sc1ccc(C)cc1 (stereo unspecified)
Output line: False

Input line: Which result was noted for this compound in the test: Cc1oc2c(c1C)S(=O)(=O)C(C#N)=C(c1ccccc1)N2
Output line: False

Input line: Which result was noted for this compound in the test: CC(C)CCC(=O)c1ccoc1 [PERILLAKETONE]
Output line: False

Input line: Which result was noted for this compound in the test: N#CCCN(CCC#N)c1ccc(/C=C2\N=C(c3ccccc3)N(c3ccc(Cl)cc3)C2=O)cc1
Output line: False

Input line: Which result was noted for this compound in the test: CC(C)=C1C(=O)C[C@]2(C)C/C=C(\C)CC/C=C(\C)CC[C@@H]12
Output line: False

Input line: Which result was noted for this compound in the test: C=C(C)C12CC3CC/C(=N/O)C(C1)C3(N1CCOCC1)C/C2=N/O (stereo unspecified)
Output line: False

Input line: Which result was noted for this compound in the test: N#Cc1c(-c2ccccc2)c(/C=N/c2ccc(Cl)cc2)c(=O)n2c1[nH]c1ccccc12
Output line: False

Input line: Which result was noted for this compound in the test: O=C(N/N=C/c1ccc2c(c1)CCC2)c1ccccc1O
Output line: False

Input line: Which result was noted for this compound in the test: CC(=O)NNc1nc(C)c(C(=O)NNC(=O)C(=O)Nc2ccc(C)cc2[N+](=O)[O-])s1
Output line: False

Input line: Which result was noted for this compound in the test: C=C1CC[C@@]2(C)[C@@H]([C@@H]1C)[C@H]1CC[C@@H]3[C@@]4(C)CC[C@H](O)C(C)(C)[C@@H]4CC[C@@]3(C)[C@]1(C)C[C@@H]2O
Output line: False

Input line: Which result was noted for this compound in the test: CC(=O)OCCCCn1cc(Cn2ccc(=O)n(Cc3cn(CCCCOC(C)=O)nn3)c2=O)nn1
Output line: False

Input line: Which result was noted for this compound in the test: COc1ccc(/N=N/C(=O)NC(CC(C)C)C(=O)NC(Cc2ccccc2)C(=O)O)cc1 (stereo unspecified)
Output line: False

Input line: Which result was noted for this compound in the test: N=C(N)NCCCC(=O)O
Output line: False

Input line: Which result was noted for this compound in the test: CN1c2ccccc2C(=O)NC12CCN(CC1COc3ccccc3O1)CC2 (stereo unspecified)
Output line: False

Input line: Which result was noted for this compound in the test: CCOC(=O)C1(Cc2ccccc2)CCCCCN1 (stereo unspecified)
Output line: False

Input line: Which result was noted for this compound in the test: NN/C(Cc1ccccc1)=N\NO
Output line: False

Input line: Which result was noted for this compound in the test: S=c1sc2nc(Cl)nc(Cl)c2s1
Output line: False

Input line: Which result was noted for this compound in the test: NC1CC(N)c2c(Br)sc(Br)c21 (stereo unspecified)
Output line: False

Input line: Which result was noted for this compound in the test: CSCCCS/C1=C/CCCCCCCCCC1
Output line: False

Input line: Which result was noted for this compound in the test: COC1C(OC(C)=O)CC(=O)OC(C)C/C=C/C=C\C(O)C(C)CC(CC=O)C1OC1OC(C)C(OC2CC(C)(O)C(OC(=O)CC(C)C)C(C)O2)C(N(C)C)C1O (stereo unspecified)
Output line: False

Input line: Which result was noted for this compound in the test: c1ccc2nn(C3CCCO3)nc2c1 (stereo unspecified)
Output line: False

Input line: Which result was noted for this compound in the test: O=C(CCc1ccccc1)On1c(-c2ccccc2)nc2ccccc2c1=S
Output line: False

Input line: Which result was noted for this compound in the test: CC(C)=CCC/C(C)=C/CCC(C(=O)COCc1ccccc1)P1(=O)OC(C)(C)CN1C(C)(C)C (stereo unspecified)
Output line: False

Input line: Which result was noted for this compound in the test: CCCCCCCCCCCCCCCC(=O)OCC1OC(n2cc(F)c(=O)[nH]c2=O)C(NC(=O)N(CCCl)N=O)C(O)C1O (stereo unspecified)
Output line: True

Input line: Which result was noted for this compound in the test: O=C1C(Br)=C(C2=CC(=P(c3ccccc3)(c3ccccc3)c3ccccc3)C=C2)C(=O)C(Br)=C1C1=CC(=P(c2ccccc2)(c2ccccc2)c2ccccc2)C=C1
Output line: False

Input line: Which result was noted for this compound in the test: COc1ccc(NC(=O)/C(=N\NC(=O)C[n+]2ccccc2)c2c(O)c3ccc(O)cc3oc2=O)c([N+](=O)[O-])c1
Output line: False

Input line: Which result was noted for this compound in the test: CC1(CO)OC1COCc1ccccc1 (stereo unspecified)
Output line: False

Input line: Which result was noted for this compound in the test: Cc1cc(N)c2ccccc2[n+]1CCCCCCCCCC[n+]1c(C)cc(N)c2ccccc21 [DEQUALINIUM CHLORIDE]
Output line: False

Input line: Which result was noted for this compound in the test: CC1(C)COC(/C=C/C2=NC(C)(C)CO2)=N1
Output line: False

Input line: Which result was noted for this compound in the test: c1ccc(N/N=N/c2ccc(-c3nc4ccccc4o3)cc2)nc1
Output line: False

Input line: Which result was noted for this compound in the test: COc1ccc(C2Oc3c(cc(O)c(OC)c3C)[C@@H]2C)cc1OC (stereo partly specified)
Output line: False

Input line: Which result was noted for this compound in the test: COC(C)(C)C1(O)CC[C@@H](C)CC1=O (stereo partly specified)
Output line: False

The measurements presented in this section are drawn from ChEMBL document CHEMBL1201862.
